Just for reference, ChEMBL document CHEMBL5029174 is where these values come from.

Target: Muscarinic acetylcholine receptor M4 (Homo sapiens) (UniProt P08173)
Sequence (P08173 whole entry): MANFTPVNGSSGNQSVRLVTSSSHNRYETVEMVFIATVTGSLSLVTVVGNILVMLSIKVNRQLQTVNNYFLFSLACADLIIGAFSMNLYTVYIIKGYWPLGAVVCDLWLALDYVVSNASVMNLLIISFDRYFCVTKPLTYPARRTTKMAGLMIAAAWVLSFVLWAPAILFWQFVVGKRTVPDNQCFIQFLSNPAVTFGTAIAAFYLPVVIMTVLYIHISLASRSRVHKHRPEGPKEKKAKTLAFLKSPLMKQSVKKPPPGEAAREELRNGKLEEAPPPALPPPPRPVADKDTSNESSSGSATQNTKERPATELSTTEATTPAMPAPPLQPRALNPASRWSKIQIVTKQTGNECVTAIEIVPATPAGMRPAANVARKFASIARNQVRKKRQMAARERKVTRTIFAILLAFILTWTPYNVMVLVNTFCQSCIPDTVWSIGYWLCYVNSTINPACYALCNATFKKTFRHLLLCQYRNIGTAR
Test: Positive allosteric modulation of human muscarinic acetylcholine M4/Gqi5 receptor expressed in CHO cells in presence of acetylcholine at EC20 concentration by calcium mobilization assay relative to control
Format: functional, cell-based
Details: filed as positive allosteric modulator
METRIC_NAME: %max (%)
// note: answer is a bare numeric in %

Cc1cc(C)c2c(n1)sc1c(C3CCOCC3)ncnc12	99
Cc1cc(C)c2c(n1)oc1c(NC3CCC3)ncnc12	44
Cc1cc(C)c2c(n1)sc1c(NC3CN(c4ncc(C(F)(F)F)cn4)C3)nccc12	80
Cc1cc(C)c2c(n1)sc1c(N3CCCC3)ncnc12	67

// %max lookup, compound = Cc1cc(C)c2c(n1)sc1c(C3CCNCC3)ncnc12 , result: 44

// %max lookup, compound = Cc1cc(C)c2c(n1)sc1c(N(C)C)nccc12 , result: 82

// %max lookup, compound = Cc1cc(C)c2c(n1)sc1c(NCc3ccc(C(C)(C)O)cc3)ncnc12 , result: 76

// %max lookup, compound = Cc1cc(C)c2c(n1)sc1c(C3CCN(C(=O)C4(C)CC4)CC3)ncnc12 , result: 72

// %max lookup, compound = Cc1cc(C)c2c(n1)oc1c(NC3CN(c4cc(Cl)ncc4Cl)C3)ncnc12 , result: 49

// %max lookup, compound = Cc1cc(C)c2c(n1)sc1c(NC3CCCC3)nccc12 , result: 71

// %max lookup, compound = Cc1cc(C)c2c(n1)sc1c(NCc3ccc(CN4CCOCC4)cc3)ncnc12 , result: 47

====

Target: Muscarinic acetylcholine receptor M4 (Homo sapiens) (UniProt P08173)
Assay: Positive allosteric modulation of human muscarinic acetylcholine M4/Gqi5 receptor expressed in CHO cells in presence of acetylcholine at EC20 concentration by calcium mobilization assay relative to control
Format: functional, cell-based
Conditions: filed as positive allosteric modulator
Reported %max by item:
// note: answer is a bare numeric in %

Some molecules with known %max results, for comparison:
Cc1cc(C)c2c(n1)sc1c(N3CCC3)ncnc12	59
Cc1cc(C)c2c(n1)sc1c(-c3nccs3)ncnc12	62
Cc1cc(C)c2c(n1)sc1c(N3CC4CC4C3)ncnc12 (stereo unspecified)	75
Cc1cc(C)c2c(n1)sc1c(N3CC4(COC4)C3)ncnc12	84
Cc1cc(C)c2c(n1)oc1c(NC3CC3)ncnc12	64
Cc1cc(C)c2c(n1)sc1c(NCc3ccc(C(C)(C)O)cc3)nccc12	101
Cc1cc(C)c2c(n1)sc1c(NCc3cnc(C)nc3)ncnc12	54
Cc1cc(C)c2c(n1)sc1c(C3CCN(C(=O)C4CC4)CC3)ncnc12	62

Item Cc1cc(C)c2c(n1)sc1c(N3CC(F)(F)C3)ncnc12 ; assay system Muscarinic acetylcholine receptor M4 (Homo sapiens) (UniProt P08173); %max reported as 69

Item Cc1cc(C)c2c(n1)sc1c(OCc3ccc(C(C)(C)O)cc3)ncnc12 ; assay system Muscarinic acetylcholine receptor M4 (Homo sapiens) (UniProt P08173); %max reported as 40

Item COc1ccc(C2CC2Nc2ncnc3c2sc2nc(C)cc(C)c23)cc1 (stereo unspecified) ; assay system Muscarinic acetylcholine receptor M4 (Homo sapiens) (UniProt P08173); %max reported as 61
